Task for the reader: assign each of the following compounds its reported composite z-score.
Target: Dihydroorotate dehydrogenase (quinone), mitochondrial (Plasmodium falciparum (isolate 3D7))
Experiment: PfDHODH enzyme inhibitors, primary screen, biochemical, C-terminal His tag, absorbance 600 nm (AID 1175);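 further: recombinant parasite enzyme with a five histidine tag at its C terminus; test concentration not given here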
Settings: DCIP absorbance 600 nm, higher = more signal, called active from +8 up or from −8 down
Please give only the number in your answer, with no unit.

Input CCCNC(=O)OC[C@H]1O[C@H](CCON=C(C)C)C=C[C@@H]1Oc1ccc(OC)cc1 . Output composite z-score: -0.411

Input C[C@@H]1C=CCC(=O)OC[C@H]2O[C@@H](C=C[C@@H]2O)[C@H](C)C=CCC(=O)OC1 . Output composite z-score: -0.793

Input COc1cccc([C@H]2Oc3ccc(OC)cc3C(=NO[C@@H](C)c3cn([C@H](CO)Cc4ccccc4)nn3)[C@@H]2O)c1 . Output composite z-score: 0.757

Input CCOC(=O)NN=C1C[C@@H](O)[C@@H](O)[C@@H]2[C@@H]3C(=O)N([C@@H](C)c4ccccc4)C(=O)[C@@H]3CC[C@H]12 . Output composite z-score: -0.309

Input CC(C)CCN1CCc2nc(COc3ccccc3)c3c(c2C1)CO[C@@H](C)C3 . Output composite z-score: 0.0368

Input CCOC(=O)[C@H](CC(C)C)NC(=O)CCC1CC(OC(=O)NCc2cccc3ccccc23)CC2(CCCC(COC(=O)NCCCN3CCCC3=O)O2)O1 (stereo partly specified) . Output composite z-score: 0.0067

Input CC(C)=CCCC(C)=CCON=C1C[C@@H](O)[C@@H](O)[C@@H]2[C@@H]3C(=O)N(C4CCCCC4)C(=O)[C@@H]3CC[C@@H]12 . Output composite z-score: -0.42

Input COc1cccc([C@@H]2Oc3ccc(OC)cc3C(=O)[C@H]2O)c1 . Output composite z-score: -2.73

Input CCOC(=O)NN=C1C[C@@H](O)[C@@H](O)[C@@H]2[C@@H]3C(=O)N(Cc4ccc5c(c4)OCO5)C(=O)[C@@H]3CC[C@H]12 . Output composite z-score: 0.005

Input COc1ccc(O[C@H]2C=C[C@@H](c3ccccc3)O[C@@H]2COC(=O)CCC(C)=NO[C@@H]2O[C@H](COC(C)=O)[C@@H](OC(C)=O)[C@H](OC(C)=O)[C@H]2OC(C)=O)cc1 . Output composite z-score: 0.671

Input CC(C)(C)N1C(=O)[C@H]2[C@H]3[C@H](O)C=CC(=O)[C@@H]3CC[C@H]2C1=O . Output composite z-score: 0.237

Input O=C1CCCC=C1C(CCc1ccccc1)OC(=O)c1ccc(Br)cc1 (stereo unspecified) . Output composite z-score: -1.19

Input COC(=O)[C@H]1O[C@@H](c2c(OC)c(OC)c(C)c(OC)c2OC)[C@H](C)[C@@H](O)[C@H]1C . Output composite z-score: -0.0757

Input CCCNC(=O)OC[C@H]1O[C@H](CCON=C(C)CCN2CCCc3nc(C)c(C)cc32)C=C[C@@H]1Oc1ccc(OC)cc1 . Output composite z-score: 0.0151

Input COC(=O)[C@H](C)NC(=O)CCC1CC(OC(=O)NCc2ccc3c(c2)OCO3)CC2(CCCC(COC(=O)NCCc3ccccc3OC)O2)O1 (stereo partly specified) . Output composite z-score: -1.07

Input CCOC(=O)[C@H](Cc1ccccc1)NC(=O)CCC1CC(OC(=O)NCc2cccc3ccccc23)CC2(CCCC(COC(=O)NCCC(C)C)O2)O1 (stereo partly specified) . Output composite z-score: -0.619

Origin of the recorded values: PubChem BioAssay
